- Test system: Plasmodium falciparum
- experiment_summary: Antiplasmodial activity against chloroquine-sensitive Plasmodium falciparum 3D7 by [3H]hypoxanthine incorporation
- Format: functional, organism-based
measured_parameter: log10 IC50 (log10 of the value in nM)

structure | reading
Clc1ccc2c(N/N=C/c3ccco3)ccnc2c1 | 2.23
CCN(CC)Cc1ccc(/C=N/Nc2ccnc3cc(Cl)ccc23)cc1 | 0.43
CCN(CC)c1ccc(/C=N/Nc2ccnc3c(OC)cccc23)cc1 | 2.31
COc1cc2ccccc2cc1/C=N/Nc1ccnc2cc(Cl)ccc12 | 1.50
COc1ccc2nccc(N/N=C/c3ccc4ccccc4n3)c2c1 | 2.10
COc1cccc(/C=N/Nc2cc(C)nc3cc4c(cc23)OCO4)c1 | 3.70
Oc1cc(/C=N/Nc2ccnc3cc(Cl)ccc23)ccc1CN1CCCC1 | -0.05
Cn1cncc1/C=N/Nc1ccnc2cc(Cl)ccc12 | 1.69
CN(C)c1ccc(/C=N/Nc2ccnc3cc(Cl)ccc23)cc1 | 2.49
Cc1noc(C)c1/C=N/Nc1ccnc2cc(Cl)ccc12 | 2.10
COc1ccc(/C=N/Nc2ccnc3ccc(OC)cc23)cc1 | 1.81
O=C(NNc1ccnc2cc(Cl)ccc12)c1c[nH]cn1 | 3.95
O=S(=O)(NNc1ccnc2cc(Cl)ccc12)c1cccc2ccccc12 | 3.33
COc1cccc2c(N/N=C/c3ccc4ccccc4n3)cc(C)nc12 | 2.90
Clc1ccc2c(N/N=C/c3ncc[nH]3)ccnc2c1 | 0.77
CCN(CC)c1ccc(/C=N/Nc2c3c(nc4ccccc24)CCCC3)cc1 | 3.03
CCN(CC)c1ccc(/C=N/Nc2ccnc3cc(Cl)ccc23)cc1 | 2.48
O=C(NNc1ccnc2cc(Cl)ccc12)c1ncc[nH]1 | 3.74
COc1ccc2nccc(N/N=C/c3ccc(CN4CCCC4)cc3)c2c1 | 1.22
COc1ccc(/C=N/Nc2ccnc3c(OC)cccc23)cc1 | 2.51
CCOc1ccc2c(N/N=C/c3ccc(OC)cc3)cc(C)nc2c1 | 2.91
COc1ccc(/C=N/Nc2cc(C)nc3ccc(OC)cc23)cc1 | 1.49
COc1ccc(/C=N/Nc2c3c(nc4cc(Cl)ccc24)CCCC3)cc1 | 2.97
COc1ccc2nc(C)cc(N/N=C/c3ccc4c(c3)OCO4)c2c1 | 2.71

====

// IC50 lookup, one value per entry
- System: Plasmodium falciparum
- experiment_summary: Antiplasmodial activity against chloroquine-sensitive Plasmodium falciparum 3D7 by [3H]hypoxanthine incorporation
- Assay type: functional, organism-based

structure | value_unit | IC50
FC(F)(F)c1ccc(-c2n[nH]cc2/C=N/Nc2ccnc3cc(Cl)ccc23)cc1 | nM | 5
Clc1ccc2c(N/N=C/c3cccs3)ccnc2c1 | nM | 167
COc1ccc2nccc(N/N=C/c3ccc(N4CCCC4)cc3)c2c1 | nM | 404
Clc1ccc2c(N/N=C/c3ccc[nH]3)ccnc2c1 | nM | 25.8
Clc1ccc2c(N/N=C/c3ccc(N4CCCC4)cc3)ccnc2c1 | nM | 855
Cc1ccc(S(=O)(=O)NNc2ccnc3cc(Cl)ccc23)cc1 | nM | 3020
Cn1ccnc1/C=N/Nc1ccnc2cc(Cl)ccc12 | nM | 61.5
C(=N\Nc1ccnc2cc3c(cc12)OCO3)/c1ccc(CN2CCCC2)cc1 | nM | 26.7
Clc1ccc2c(N/N=C/c3ccc4c(c3)OCO4)ccnc2c1 | nM | 400
CCN(CC)c1ccc(/C=N/Nc2ccnc3ccc(OC)cc23)cc1 | nM | 22.9
Clc1ccc2c(N/N=C/c3cnc[nH]3)ccnc2c1 | nM | 152

====

// pIC50 lookup, one value per entry
- Test system: Plasmodium falciparum
- experiment_summary: Antiplasmodial activity against chloroquine-resistant Plasmodium falciparum W2 by [3H]hypoxanthine incorporation
- Format: functional, organism-based
pIC50: −log10 of the molar value.

structure | comparator | pIC50
Clc1ccc2c(N/N=C/c3cccs3)ccnc2c1 | = | 6.07
FC(F)(F)c1ccc(-c2n[nH]cc2/C=N/Nc2ccnc3cc(Cl)ccc23)cc1 | = | 6.59
Clc1ccc2c(N/N=C/c3ccc(N4CCCC4)cc3)ccnc2c1 | = | 6.72
O=C(NNc1ccnc2cc(Cl)ccc12)c1c[nH]cn1 | < | 5.00
CCN(CC)c1ccc(/C=N/Nc2ccnc3c(OC)cccc23)cc1 | = | 6.10
O=S(=O)(NNc1ccnc2cc(Cl)ccc12)c1cccc2ccccc12 | = | 5.60
O=C(NNc1ccnc2cc(Cl)ccc12)c1ncc[nH]1 | < | 5.00
Cn1cncc1/C=N/Nc1ccnc2cc(Cl)ccc12 | = | 6.60
CCOc1ccc2c(N/N=C/c3ccc(OC)cc3)cc(C)nc2c1 | = | 6.63
COc1ccc2nccc(N/N=C/c3ccc4ccccc4n3)c2c1 | = | 7.02
Cc1cc(N/N=C/c2ccc3c(c2)OCO3)c2ccc(Cl)cc2n1 | = | 6.55
Clc1ccc2c(N/N=C/c3ncc[nH]3)ccnc2c1 | = | 7.63
CCN(CC)c1ccc(/C=N/Nc2c3c(nc4ccccc24)CCCC3)cc1 | = | 5.83
COc1ccc(/C=N/Nc2c3c(nc4ccccc24)CCCC3)cc1 | = | 5.63
Clc1ccc2c(N/N=C/c3ccco3)ccnc2c1 | = | 5.86
COc1ccc2nccc(N/N=C/c3ccc4c(c3)OCO4)c2c1 | = | 6.71
C(=N\Nc1c2c(nc3ccccc13)CCCC2)/c1ccc2c(c1)OCO2 | = | 6.03
COc1ccc2nc(C)cc(N/N=C/c3ccc4c(c3)OCO4)c2c1 | = | 6.74
COc1cccc2c(N/N=C/c3ccc4ccccc4n3)cc(C)nc12 | = | 6.49
CN(C)c1ccc(/C=N/Nc2ccnc3cc(Cl)ccc23)cc1 | = | 6.42
COc1ccc(/C=N/Nc2cc(C)nc3ccc(OC)cc23)cc1 | = | 6.82
COc1ccc(/C=N/Nc2ccnc3c(OC)cccc23)cc1 | = | 6.04
CCN(CC)c1ccc(/C=N/Nc2ccnc3cc(Cl)ccc23)cc1 | = | 6.60
COc1cc2ccccc2cc1/C=N/Nc1ccnc2cc(Cl)ccc12 | = | 6.77
Clc1ccc2c(N/N=C/c3ccncc3)ccnc2c1 | = | 6.20
Clc1ccc2c(N/N=C/c3ccc[nH]3)ccnc2c1 | = | 6.59
Clc1ccc2c(N/N=C/c3cccnc3)ccnc2c1 | = | 6.09
Cn1ccnc1/C=N/Nc1ccnc2cc(Cl)ccc12 | = | 7.06
CCN(CC)c1ccc(/C=N/Nc2ccnc3ccc(OC)cc23)cc1 | = | 6.78
COc1ccc(/C=N/Nc2c3c(nc4cc(Cl)ccc24)CCCC3)cc1 | = | 5.88
Clc1ccc2c(N/N=C/c3ccc4c(c3)OCO4)ccnc2c1 | = | 6.69
Clc1ccc2c(N/N=C/c3cnc[nH]3)ccnc2c1 | = | 6.85
COc1cccc(/C=N/Nc2cc(C)nc3cc4c(cc23)OCO4)c1 | = | 6.64
COc1ccc2nccc(N/N=C/c3ccc(N4CCCC4)cc3)c2c1 | = | 6.73
C(=N\Nc1ccnc2cc3c(cc12)OCO3)/c1ccc(CN2CCCC2)cc1 | = | 7.33
Cc1ccc(S(=O)(=O)NNc2ccnc3cc(Cl)ccc23)cc1 | = | 5.30
Cc1cccc(/C=N/Nc2ccnc3cc(Cl)ccc23)n1 | = | 6.12
COc1ccc2nccc(N/N=C/c3ccc(CN4CCCC4)cc3)c2c1 | = | 7.00
Cc1noc(C)c1/C=N/Nc1ccnc2cc(Cl)ccc12 | = | 6.29
Cc1cccc(/C=N/Nc2cc(C)nc3cc(Cl)ccc23)n1 | = | 5.88
COc1ccc2c(N/N=C/c3ccc4ccccc4n3)ccnc2c1 | = | 6.85
CCN(CC)Cc1ccc(/C=N/Nc2ccnc3cc(Cl)ccc23)cc1 | = | 7.24
Oc1cc(/C=N/Nc2ccnc3cc(Cl)ccc23)ccc1CN1CCCC1 | = | 7.72

====

- assay_target: UniProt:P05227
- Sequence (whole entry): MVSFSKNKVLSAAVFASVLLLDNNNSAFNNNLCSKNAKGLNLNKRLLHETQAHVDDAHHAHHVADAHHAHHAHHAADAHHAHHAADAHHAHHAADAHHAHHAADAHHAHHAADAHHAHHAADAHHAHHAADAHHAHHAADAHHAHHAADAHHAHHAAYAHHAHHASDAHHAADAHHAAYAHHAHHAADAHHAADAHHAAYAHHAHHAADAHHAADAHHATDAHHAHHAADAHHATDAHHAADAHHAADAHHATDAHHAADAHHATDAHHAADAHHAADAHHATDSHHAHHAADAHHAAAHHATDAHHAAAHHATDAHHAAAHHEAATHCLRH
- experiment_summary: Inhibition of beta-hematin formation by BHIA
- Format: functional

compound | Activity
FC(F)(F)c1ccc(-c2n[nH]cc2/C=N/Nc2ccnc3cc(Cl)ccc23)cc1 | Dose-dependent effect
Clc1ccc2c(N/N=C/c3ccc(CN4CCCC4)cc3)ccnc2c1 | Dose-dependent effect
CCN(CC)CCCC(C)Nc1ccnc2cc(Cl)ccc12 (stereo not given) | Dose-dependent effect
Clc1ccc2c(N/N=C/c3ncc[nH]3)ccnc2c1 | Dose-dependent effect
Clc1ccc2c(N/N=C/c3ccco3)ccnc2c1 | Dose-dependent effect
